# assayed_system: T1, 4H2717-bA
# T1 chain: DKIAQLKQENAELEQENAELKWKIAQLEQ
# assay_protocol: two-hybrid library CCNG1;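 note: natural log of median RNA to DNA barcode read ratio; higher means stronger binding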
result_type: interaction score
Write the value as a bare number.

binder: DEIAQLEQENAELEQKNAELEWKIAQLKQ [4H182-bA]
reported_measurement: 0.261
//
binder: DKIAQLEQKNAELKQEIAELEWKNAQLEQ [4H2503-bA]
reported_measurement: -0.684

Turning now to a further record.
Query: Output interaction score of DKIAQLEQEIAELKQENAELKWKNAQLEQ [4H2143-bA]
Result: 0.447

Ref: paper PMC10397247
